Measured pIC50 values are reported for all entries that follow.
- tested_system: α-glucosidase type 1 from Saccharomyces cerevisiae (Saccharomyces cerevisiae)
- Construct: purchased Merck Life Science (Pty) Ltd. (Sigma-Aldrich) G5003
- Sequence (P53341 whole entry): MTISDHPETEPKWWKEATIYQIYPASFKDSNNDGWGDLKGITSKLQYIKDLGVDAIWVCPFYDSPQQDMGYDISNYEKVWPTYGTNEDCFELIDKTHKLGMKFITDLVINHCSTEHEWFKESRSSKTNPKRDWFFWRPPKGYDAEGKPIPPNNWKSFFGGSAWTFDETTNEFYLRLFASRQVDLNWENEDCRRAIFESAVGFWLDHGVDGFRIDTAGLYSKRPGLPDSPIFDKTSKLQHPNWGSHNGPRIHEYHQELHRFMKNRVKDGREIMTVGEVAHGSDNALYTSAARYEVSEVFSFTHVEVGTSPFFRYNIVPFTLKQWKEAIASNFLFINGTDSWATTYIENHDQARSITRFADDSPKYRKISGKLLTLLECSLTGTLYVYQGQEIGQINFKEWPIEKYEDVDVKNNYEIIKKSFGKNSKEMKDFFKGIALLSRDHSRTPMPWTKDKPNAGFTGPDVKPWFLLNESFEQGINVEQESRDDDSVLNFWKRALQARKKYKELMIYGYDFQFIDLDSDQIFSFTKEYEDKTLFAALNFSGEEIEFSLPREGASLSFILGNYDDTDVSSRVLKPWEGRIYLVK
- method: biochemical
- Assay type: biochemical
- test_settings: mean ± SD, triplicate; 1-50 μM; read-out: IC50 α-Glucosidase
pIC50: −log10 of the molar value.

smi: COc1ccc(-c2cc(=O)c3c(OC)c(Br)c(OC)c(Br)c3o2)cc1
pIC50: 4.82
--
smi: COc1c(Br)c(OC)c2c(=O)cc(-c3ccc(Cl)cc3)oc2c1Br
pIC50: 6.10
--
smi: COc1c(Br)c(OC)c2c(=O)cc(-c3ccc(C(C)C)cc3)oc2c1Br
pIC50: 5.25
--
smi: COc1c(Br)c(O)c(C(=O)/C=C/c2ccc(F)cc2)c(OC)c1Br
pIC50: 5.14
--
smi: COc1c(Br)c(OC)c2c(=O)cc(-c3ccc(C)cc3)oc2c1Br
pIC50: 4.96
--
smi: COc1c(Br)c(OC)c2c(=O)cc(-c3ccc(F)cc3)oc2c1Br
pIC50: 4.71
